# testTarget: D(2) dopamine receptor (Mesocricetus auratus, UniProt A0A1U7QAF5)
# Sequence (A0A1U7QAF5 whole entry): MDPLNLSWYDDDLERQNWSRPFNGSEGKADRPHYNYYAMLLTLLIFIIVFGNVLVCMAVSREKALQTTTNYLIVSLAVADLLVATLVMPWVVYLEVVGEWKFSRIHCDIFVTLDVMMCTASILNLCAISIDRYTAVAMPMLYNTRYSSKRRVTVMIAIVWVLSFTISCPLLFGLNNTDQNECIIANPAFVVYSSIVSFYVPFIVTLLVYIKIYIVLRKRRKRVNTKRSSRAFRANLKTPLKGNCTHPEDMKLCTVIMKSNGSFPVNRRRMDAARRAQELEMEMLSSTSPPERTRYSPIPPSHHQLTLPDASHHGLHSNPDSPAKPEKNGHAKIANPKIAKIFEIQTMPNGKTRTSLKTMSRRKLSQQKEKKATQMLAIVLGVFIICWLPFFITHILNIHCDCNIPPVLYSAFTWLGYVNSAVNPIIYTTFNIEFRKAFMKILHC
recordedMetric: pKi
Note on pKi: it is the negative log10 of concentration, concentration in mol/L.

Input line: Please state recorded pKi (tested on D(2) dopamine receptor (Mesocricetus auratus, UniProt A0A1U7QAF5)) of `Cc1cc2c(cc1Cl)N(C(=O)Nc1ccc(Oc3cccnc3C)nc1)CC2`
Output line: 6.20

----------
# testTarget: 5-hydroxytryptamine receptor 1B (Cricetulus griseus, UniProt P46636)
# Sequence (P46636 whole entry): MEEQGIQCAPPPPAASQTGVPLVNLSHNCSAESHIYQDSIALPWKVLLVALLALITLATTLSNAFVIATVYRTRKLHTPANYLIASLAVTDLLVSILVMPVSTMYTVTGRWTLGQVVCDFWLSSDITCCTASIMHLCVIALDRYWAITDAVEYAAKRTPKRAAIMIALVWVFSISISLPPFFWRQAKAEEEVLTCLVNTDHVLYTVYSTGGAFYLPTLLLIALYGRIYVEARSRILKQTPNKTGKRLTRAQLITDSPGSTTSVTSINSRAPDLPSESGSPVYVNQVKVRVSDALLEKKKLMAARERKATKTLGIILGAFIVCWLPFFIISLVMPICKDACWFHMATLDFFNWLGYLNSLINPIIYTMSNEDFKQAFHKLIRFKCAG
recordedMetric: Ki (nM)
Report as a plain number; the unit nM is understood.

Input line: Please state recorded Ki (tested on 5-hydroxytryptamine receptor 1B (Cricetulus griseus, UniProt P46636)) of `Cc1cc2c(cc1Cl)N(C(=O)Nc1ccc(Oc3cccnc3C)nc1)CC2`
Output line: 398
